biological target: UniProtKB P07711; experiment: Inhibition of recombinant human Cathepsin L
Sequence (P07711 whole entry): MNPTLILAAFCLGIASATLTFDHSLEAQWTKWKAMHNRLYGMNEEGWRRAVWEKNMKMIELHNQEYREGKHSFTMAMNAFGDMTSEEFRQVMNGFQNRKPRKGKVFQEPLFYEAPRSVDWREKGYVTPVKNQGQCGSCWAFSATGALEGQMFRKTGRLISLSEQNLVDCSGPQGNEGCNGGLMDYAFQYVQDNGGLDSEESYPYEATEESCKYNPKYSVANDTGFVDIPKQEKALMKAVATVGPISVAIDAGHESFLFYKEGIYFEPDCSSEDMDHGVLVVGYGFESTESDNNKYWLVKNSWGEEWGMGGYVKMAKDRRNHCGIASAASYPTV
pIC50: −log10 of the molar value.
Label y for high-side pIC50 (at or above 7) and n for low-side pIC50 (below it).

For orientation, consider the following solved cases.
1) O=C(N[C@@H](Cc1ccccc1)C(=O)N[C@@H]1C(=O)N[C@H]1Sc1ccccc1)OCc1ccccc1; y
2) O=C(N[C@@H](Cc1ccccc1)C(=O)N[C@@H]1C(=O)N[C@@H]1Sc1ccccc1)OCc1ccccc1; y
3) CC(C)(C)O[C@@H]1NC(=O)[C@H]1NC(=O)[C@H](Cc1ccccc1)NC(=O)OCc1ccccc1; n
4) O=C(N[C@@H](Cc1ccccc1)C(=O)N[C@@H]1CNC1=O)OCc1ccccc1; n
5) O=C(N[C@@H](Cc1ccccc1)C(=O)N[C@@H]1C(=O)N[C@H]1OCc1ccccc1)OCc1ccccc1; n

Lookup: Could you verify whether the entry CC(=O)O[C@@H]1NC(=O)[C@H]1NC(=O)[C@H](Cc1ccccc1)NC(=O)OCc1ccccc1 shows pIC50 of no less than 7?
Found: y

Lookup: Could you verify whether the entry O=C(N[C@@H](Cc1ccccc1)C(=O)N[C@@H]1C(=O)N[C@H]1S(=O)(=O)c1ccccc1)OCc1ccccc1 shows pIC50 of no less than 7?
Found: y

Lookup: Could you verify whether the entry O=C(CCc1ccccc1)O[C@@H]1NC(=O)[C@H]1NC(=O)[C@H](Cc1ccccc1)NC(=O)OCc1ccccc1 shows pIC50 of no less than 7?
Found: y

Lookup: Could you verify whether the entry O=C(N[C@@H](Cc1ccccc1)C(=O)N[C@@H]1C(=O)N[C@H]1OC(=O)c1ccccc1)OCc1ccccc1 shows pIC50 of no less than 7?
Found: n

====

Listing: pIC50 of selected molecules
Molecular target: Neutrophil elastase (Homo sapiens)
Sequence (P08246 whole entry): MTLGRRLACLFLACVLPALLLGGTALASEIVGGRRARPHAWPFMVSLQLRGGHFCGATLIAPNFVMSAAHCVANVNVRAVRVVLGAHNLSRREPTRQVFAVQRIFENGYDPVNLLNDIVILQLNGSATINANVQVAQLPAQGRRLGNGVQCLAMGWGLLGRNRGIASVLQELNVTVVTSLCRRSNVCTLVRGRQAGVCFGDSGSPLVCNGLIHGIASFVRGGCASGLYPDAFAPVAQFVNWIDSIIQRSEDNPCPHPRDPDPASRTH
Experiment: Inhibition of human leukocyte elastase(HLE)
pIC50: −log10 of the molar value.

Guide cases for pIC50, answers given:
1) O=C(CCc1ccccc1)O[C@@H]1NC(=O)[C@H]1NC(=O)[C@H](Cc1ccccc1)NC(=O)OCc1ccccc1; < 4.30
2) O=C(N[C@@H](Cc1ccccc1)C(=O)N[C@@H]1CNC1=O)OCc1ccccc1; < 4.30
3) O=C(N[C@@H](Cc1ccccc1)C(=O)N[C@@H]1C(=O)N[C@@H]1Oc1ccccc1)OCc1ccccc1; < 4.52
4) O=C(N[C@@H](Cc1ccccc1)C(=O)N[C@@H]1C(=O)N[C@H]1Oc1ccccc1)OCc1ccccc1; < 4.52
5) O=C(N[C@@H](Cc1ccccc1)C(=O)N[C@@H]1C(=O)N[C@H]1S(=O)(=O)c1ccccc1)OCc1ccccc1; < 4.30
6) O=C(N[C@@H](Cc1ccccc1)C(=O)N[C@@H]1C(=O)N[C@H]1OC(=O)c1ccccc1)OCc1ccccc1; < 4.30

Lookup: Endpoint output: pIC50 of CC(C)(C)O[C@@H]1NC(=O)[C@H]1NC(=O)[C@H](Cc1ccccc1)NC(=O)OCc1ccccc1 . Value?
Found: < 4.30

Lookup: Endpoint output: pIC50 of O=C(N[C@@H](Cc1ccccc1)C(=O)N[C@@H]1C(=O)N[C@H]1OCc1ccccc1)OCc1ccccc1 . Value?
Found: < 4.30

Provenance of the data: ChEMBL document CHEMBL1136415
